test system: MOLM-13 cells; assay: MOLM-13 cell proliferation experiment; format: cell-based; settings: Homo sapiens, MOLM-13, 72 h, MOLM-13 cell proliferation, 3 days, Tables 3.1 and 3.2; read-out: IC50

compound: CC1CCC2(CCN(c3ncc(Sc4cccc(Cl)c4Cl)c4nccn34)CC2)[C@@H]1N (some centres unmarked)
IC50: 0.1 to 1 µM
--
compound: CN(C)C(=O)C(=O)Nc1cccc(Sc2cnc(N3CCC4(CCC[C@H]4N)CC3)n3ccnc23)c1Cl
IC50: 0.1 to 1 µM
--
compound: N[C@@H]1CCCC12CCN(c1ncc(Sc3cccnc3C(F)(F)F)c3nncn13)CC2
IC50: 0.1 to 1 µM
--
compound: N[C@@H]1CC(F)(F)CC12CCN(c1ncc(Sc3cccc(Cl)c3Cl)c3nccn13)CC2
IC50: 0.1 to 1 µM
--
compound: N[C@@H]1CCCCC12CCN(c1ncc(Sc3cccc(Cl)c3Cl)c3nncn13)CC2
IC50: 1 to 10 µM

---

tested on: MOLM-13 cells; experiment: MOLM-13 cell proliferation experiment; format: cell-based; conditions: Homo sapiens, MOLM-13, 72 h, MOLM-13 cell proliferation, 3 days, Tables 3.1 and 3.2; read-out: IC50
pIC50: −log10 of the molar value.
// reported pIC50 for each item listed

compound: C=CC(=O)Nc1cccc(Sc2cnc(N3CCC4(CCC[C@H]4N)CC3)n3cnnc23)c1Cl
pIC50: 6.00 to 7.00
--
compound: N[C@@H]1CCCC12CCN(c1ncc(Sc3ccnc(Cl)c3Cl)c3nncn13)CC2
pIC50: 6.00 to 7.00
--
compound: C[C@@H]1OCC2(CCN(c3ncc(Sc4ccnc(N)c4Cl)c4nncn34)CC2)[C@@H]1N
pIC50: 6.00 to 7.00
--
compound: Cc1nccc(Sc2cnc(N3CCC4(CC3)COC[C@H]4N)n3cnnc23)c1Cl
pIC50: 6.00 to 7.00
--
compound: N[C@@H]1CCCC12CCN(c1ncc(Sc3ccnc4ccccc34)c3nccn13)CC2
pIC50: > 7.00
--
compound: Nc1cc(Sc2cnc(N3CCC4(CC3)COC[C@H]4N)n3cnnc23)c(Cl)c(Cl)n1
pIC50: 5.00 to 6.00
--
compound: N[C@@H]1CCCC12CCN(c1ncc(Sc3ccc(Cl)cc3Cl)c3nncn13)CC2
pIC50: 5.00 to 6.00
--
compound: N[C@@H]1CCC12CCN(c1ncc(Sc3cccc(Cl)c3Cl)c3nccn13)CC2
pIC50: 6.00 to 7.00
--
compound: NCC1(c2ccccc2)CCN(c2ncc(Sc3cccc(Cl)c3Cl)c3nncn23)CC1
pIC50: 6.00 to 7.00
--
compound: N[C@@H]1CCCC12CCN(c1ncc(Sc3ccnc(Cl)c3Cl)c3nccn13)CC2
pIC50: > 7.00
--
compound: C[C@@H]1OCC2(CCN(c3ncc(Sc4ccnc(Cl)c4Cl)c4nccn34)CC2)[C@@H]1N
pIC50: > 7.00
--
compound: Nc1nccc(Sc2cnc(N3CCC4(CC3)COC[C@H]4N)n3cnnc23)c1Cl
pIC50: 5.00 to 6.00
--
compound: Cc1nc(N)cc(Sc2cnc(N3CCC4(CC3)COC[C@H]4N)n3ccnc23)c1Cl
pIC50: 6.00 to 7.00
--
compound: CC1C[C@@H](N)C2(CCN(c3ncc(Sc4ccnc(Cl)c4Cl)c4nncn34)CC2)C1 (stereo partly shown)
pIC50: 6.00 to 7.00
--
compound: Nc1cc(Sc2cnc(N3CCC4(CCC[C@H]4N)CC3)n3cnnc23)c(Cl)c(Cl)n1
pIC50: 6.00 to 7.00
--
compound: C[C@@H]1OCC2(CCN(c3ncc(Sc4cc(N)nc(Cl)c4Cl)c4nccn34)CC2)[C@@H]1N
pIC50: > 7.00
--
compound: COc1nccc(Sc2cnc(N3CCC4(CCC[C@H]4N)CC3)n3ccnc23)c1Cl
pIC50: 6.00 to 7.00
--
compound: N[C@@H]1CC(O)CC12CCN(c1ncc(Sc3cccc(Cl)c3Cl)c3nccn13)CC2 (stereo partly shown)
pIC50: > 7.00
--
compound: CC1C[C@@H](N)C2(CCN(c3ncc(Sc4ccnc(Cl)c4Cl)c4nccn34)CC2)C1 (stereo partly shown)
pIC50: > 7.00

---

// reported pIC50 for each item listed
biological target: SHP2^E76A protein (Homo sapiens (Human), UniProt Q06124, E76A); assay: SHP2 enzyme activity inhibition experiment; type: biochemical; settings: SHP2 enzyme activity, Tables 1.1 and 1.2; read-out: IC50
Sequence (Q06124 whole entry E76A): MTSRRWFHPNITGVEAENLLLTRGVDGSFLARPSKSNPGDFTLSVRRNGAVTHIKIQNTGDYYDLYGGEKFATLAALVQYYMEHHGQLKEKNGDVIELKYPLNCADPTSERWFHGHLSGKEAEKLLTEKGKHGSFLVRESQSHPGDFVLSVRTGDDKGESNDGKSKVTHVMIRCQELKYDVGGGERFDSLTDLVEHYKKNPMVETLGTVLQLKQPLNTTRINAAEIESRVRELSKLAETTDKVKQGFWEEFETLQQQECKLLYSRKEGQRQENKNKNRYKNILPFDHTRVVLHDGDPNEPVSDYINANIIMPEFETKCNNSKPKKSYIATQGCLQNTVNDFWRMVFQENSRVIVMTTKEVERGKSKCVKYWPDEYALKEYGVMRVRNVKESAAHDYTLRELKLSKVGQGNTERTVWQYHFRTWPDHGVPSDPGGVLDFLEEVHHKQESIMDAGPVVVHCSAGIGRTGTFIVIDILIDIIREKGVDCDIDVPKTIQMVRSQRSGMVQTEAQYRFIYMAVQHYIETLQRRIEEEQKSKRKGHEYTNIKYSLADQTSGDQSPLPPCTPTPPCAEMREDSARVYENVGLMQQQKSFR
pIC50: −log10 of the molar value.

compound: Cc1nccc(Sc2cnc(N3CCC4(CCC[C@H]4N)CC3)n3cnnc23)c1Cl
assay.target: SHP2^E76A protein (Homo sapiens (Human), UniProt Q06124, E76A)
pIC50: > 7.00
--
compound: NC1CC2(CCN(c3ncc(Sc4cccc(Cl)c4Cl)c4nncn34)CC2)C1
assay.target: SHP2^E76A protein (Homo sapiens (Human), UniProt Q06124, E76A)
pIC50: 5.00 to 6.00
--
compound: N[C@@H]1CCCC12CCN(c1ncc(Sc3ccccc3Cl)c3nccn13)CC2
assay.target: SHP2^E76A protein (Homo sapiens (Human), UniProt Q06124, E76A)
pIC50: > 7.00
--
compound: CC1CN(c2ncc(Sc3cccc(Cl)c3Cl)c3nncn23)CC(C)N1 (stereo not shown)
assay.target: SHP2^E76A protein (Homo sapiens (Human), UniProt Q06124, E76A)
pIC50: 5.00 to 6.00
--
compound: Cc1nccc(Sc2cnc(N3CCC4(CC3)COC[C@H]4N)n3cnnc23)c1Cl
assay.target: SHP2^E76A protein (Homo sapiens (Human), UniProt Q06124, E76A)
pIC50: 6.00 to 7.00
--
compound: Nc1ccc(Sc2cnc(N3CCC4(CCC[C@H]4N)CC3)n3ncnc23)c(Cl)n1
assay.target: SHP2^E76A protein (Homo sapiens (Human), UniProt Q06124, E76A)
pIC50: 5.00 to 6.00
--
compound: N[C@@H]1CCCC12CCN(c1ncc(Sc3ccnc4ccccc34)c3nccn13)CC2
assay.target: SHP2^E76A protein (Homo sapiens (Human), UniProt Q06124, E76A)
pIC50: > 7.00
--
compound: Nc1nccc(Sc2cnc(N3CCC4(CC3)COC[C@H]4N)n3ccnc23)c1Cl
assay.target: SHP2^E76A protein (Homo sapiens (Human), UniProt Q06124, E76A)
pIC50: > 7.00
--
compound: N[C@@H]1CC(O)CC12CCN(c1ncc(Sc3cccc(Cl)c3Cl)c3nccn13)CC2 (stereo partly shown)
assay.target: SHP2^E76A protein (Homo sapiens (Human), UniProt Q06124, E76A)
pIC50: > 7.00
--
compound: N[C@@H]1CCCC12CCN(c1ncc(Sc3ccccc3Cl)c3nncn13)CC2
assay.target: SHP2^E76A protein (Homo sapiens (Human), UniProt Q06124, E76A)
pIC50: 6.00 to 7.00
